Entry source: ChEMBL document CHEMBL4000149

Could you please report measured EC50 at 1 hr for the items listed next?
- ASSAY INFO: Toxicity in human erythrocytes assessed as hemolysis after 1 hr
- Assay type: cell-based, Erythrocyte
Bridge positions count the residues as written; N and C are the ends. Square brackets hold non-standard residues; d marks the D form. Peptide text beside a SMILES is read from it. ξ: configuration not given here. 2Nal = N[C@@H](Cc1ccc2ccccc2c1)C(=O)O; Aoc = NCCCCCCCC(=O)O; ξDab = NCCC(N)C(=O)O; GABA = NCCCC(=O)O

Problem: Which EC50 at 1 hr reading was recorded for the molecule CC(C)C[C@@H]1NC(=O)CNC(=O)[C@H](Cc2ccc3ccccc3c2)NC(=O)[C@H](CCCNC(=N)N)NC(=O)[C@H]([C@@H](C)O)NC(=O)[C@H](Cc2ccc3ccccc3c2)NC(=O)[C@H](CCCNC(=N)N)NC1=O (cyclo([2Nal]GLR[2Nal]TR)) ?
Result: > 150 µM

Problem: Proceed to CC(C)C[C@@H]1NC(=O)CNC(=O)[C@H](Cc2ccc3ccccc3c2)NC(=O)[C@H](CCCCN)NC(=O)[C@H](CC(C)C)NC(=O)[C@H](Cc2ccc3ccccc3c2)NC(=O)[C@H](CCCCN)NC1=O (cyclo([2Nal]GLK[2Nal]LK))
Result: > 150 µM

Problem: Same again, this time with CC(C)C[C@@H]1NC(=O)[C@H](Cc2ccc3ccccc3c2)NC(=O)[C@H](CCCNC(=N)N)NC(=O)[C@H](CC(C)C)NC(=O)[C@@H](N)CCCCNC(=O)[C@H](Cc2ccc3ccccc3c2)NC(=O)[C@H](CCCNC(=N)N)NC1=O (H-KLR[2Nal]LR[2Nal]; lactam 1-C)
Result: 150 µM

Problem: Please answer likewise for CC(C)C[C@@H]1NC(=O)CCCNC(=O)C(N)CCNC(=O)[C@H](Cc2ccc3ccccc3c2)NC(=O)[C@H](CCCNC(=N)N)NC(=O)[C@H](CC(C)C)NC(=O)[C@H](Cc2ccc3ccccc3c2)NC(=O)[C@H](CCCNC(=N)N)NC1=O (stereo partly specified) (H-[ξDab][GABA]LR[2Nal]LR[2Nal]; lactam 1-C)
Result: 255 µM

Problem: Try this molecule next: CC(C)C[C@@H]1NC(=O)[C@H](Cc2ccc3ccccc3c2)NC(=O)[C@H](CCCNC(=N)N)NC(=O)[C@H]([C@@H](C)O)NC(=O)CNC(=O)[C@H](Cc2ccc3ccccc3c2)NC(=O)[C@H](CCCNC(=N)N)NC1=O (cyclo([2Nal]GTR[2Nal]LR))
Result: > 150 µM

Problem: Would you kindly repeat that for CC[C@H](C)[C@@H]1NC(=O)[C@H](Cc2ccc3ccccc3c2)NC(=O)[C@H](CCCNC(=N)N)NC(=O)[C@H]([C@@H](C)O)NC(=O)CCCCCCCNC(=O)[C@H](Cc2ccc3ccccc3c2)NC(=O)[C@H](CCCNC(=N)N)NC1=O (cyclo([2Nal][Aoc]TR[2Nal]IR)) ?
Result: > 150 µM

----------
Record form. Attribute: hemolysis at 1 h, 150 µM. Fill in for each entry.
- ASSAY INFO: Toxicity in human erythrocytes assessed as hemolysis at 150 uM after 1 hr
- Format: cell-based, Erythrocyte
- TEST SETTINGS: read-out: Activity
Square brackets hold non-standard residues; d marks the D form. Peptide text beside a SMILES is read from it. 2Nal = N[C@@H](Cc1ccc2ccccc2c1)C(=O)O; Aoc = NCCCCCCCC(=O)O
Numeric only. Scale: %

Problem: Reported hemolysis at 1 h, 150 µM for CC(C)C[C@@H]1NC(=O)CNC(=O)[C@H](Cc2ccc3ccccc3c2)NC(=O)[C@H](CCCCN)NC(=O)[C@H](CC(C)C)NC(=O)[C@H](Cc2ccc3ccccc3c2)NC(=O)[C@H](CCCCN)NC1=O (cyclo([2Nal]GLK[2Nal]LK)) : what is it?
Result: 13

Problem: Next entry: CC[C@H](C)[C@@H]1NC(=O)[C@H](Cc2ccc3ccccc3c2)NC(=O)[C@H](CCCNC(=N)N)NC(=O)[C@H]([C@@H](C)O)NC(=O)CCCCCCCNC(=O)[C@H](Cc2ccc3ccccc3c2)NC(=O)[C@H](CCCNC(=N)N)NC1=O (cyclo([2Nal][Aoc]TR[2Nal]IR))
Result: 10

Problem: Try CCCCCCC1NC(=O)[C@H](Cc2ccc3ccccc3c2)NC(=O)[C@H](CCCNC(=N)N)NC(=O)[C@H](CC(C)C)NC(=O)CNC(=O)[C@H](Cc2ccc3ccccc3c2)NC(=O)[C@H](CCCNC(=N)N)NC1=O (some centres undefined) next.
Result: 100

----------
- Test system: Acinetobacter baumannii
- ASSAY INFO: Antimicrobial activity against multidrug-resistant Acinetobacter baumannii ATCC BAA-1605 by tube dilution method
- Type: functional
Square brackets hold non-standard residues; d marks the D form. Peptide text beside a SMILES is read from it. 2Nal = N[C@@H](Cc1ccc2ccccc2c1)C(=O)O
MEASUREMENT NAME: MIC

Problem: Can you look up the measured MIC of CC(C)C[C@@H]1NC(=O)CNC(=O)[C@H](Cc2c[nH]c3ccccc23)NC(=O)[C@H](CCCNC(=N)N)NC(=O)[C@H](CC(C)C)NC(=O)[C@H](Cc2c[nH]c3ccccc23)NC(=O)[C@H](CCCNC(=N)N)NC1=O (cyclo(GLRWLRW)) for me?
Result: > 128 µM

Problem: Try the molecule CC(C)C[C@@H]1NC(=O)[C@H](Cc2ccc3ccccc3c2)NC(=O)[C@H](CCCNC(=N)N)NC(=O)[C@@H]2CCCN2C(=O)CNC(=O)[C@H](Cc2ccc3ccccc3c2)NC(=O)[C@H](CCCNC(=N)N)NC1=O (cyclo([2Nal]GPR[2Nal]LR))
Result: > 128 µM

----------
- ASSAY INFO: Toxicity in human erythrocytes assessed as hemolysis after 1 hr
- Type: cell-based, Erythrocyte
Square brackets hold non-standard residues; d marks the D form. Peptide text beside a SMILES is read from it. 2Nal = N[C@@H](Cc1ccc2ccccc2c1)C(=O)O; Cha = N[C@@H](CC1CCCCC1)C(=O)O; Ahx = NCCCCCC(=O)O
MEASUREMENT NAME: EC50 at 1 hr

Problem: What measured EC50 at 1 hr goes with CC(C)C[C@@H]1NC(=O)CNC(=O)[C@H](Cc2ccc3ccccc3c2)NC(=O)[C@H](CCCNC(=N)N)NC(=O)[C@@H]2CCCN2C(=O)[C@H](Cc2ccc3ccccc3c2)NC(=O)[C@H](CCCNC(=N)N)NC1=O (cyclo([2Nal]GLR[2Nal]PR)) ?
Result: > 150 µM

Problem: Further, for CC(C)C[C@@H]1NC(=O)CNC(=O)[C@H](Cc2ccc3ccccc3c2)NC(=O)[C@H](CCCNC(=N)N)NC(=O)[C@H](CC2CCCCC2)NC(=O)[C@H](Cc2ccc3ccccc3c2)NC(=O)[C@H](CCCNC(=N)N)NC1=O (cyclo([2Nal][Cha]R[2Nal]GLR)) ?
Result: 60 µM

Problem: Entry CC(C)C[C@@H]1NC(=O)[C@H](Cc2ccc3ccccc3c2)NC(=O)[C@H](CCCNC(=N)N)NC(=O)[C@H](CC2CCCCC2)NC(=O)CNC(=O)[C@H](Cc2ccc3ccccc3c2)NC(=O)[C@H](CCCNC(=N)N)NC1=O (cyclo([2Nal]G[Cha]R[2Nal]LR)) please
Result: 28 µM

Problem: Next compound up: CC(C)C[C@@H]1NC(=O)CCCCCNC(=O)[C@H](Cc2ccc3ccccc3c2)NC(=O)[C@H](CCCNC(=N)N)NC(=O)[C@H](CC(C)C)NC(=O)[C@H](Cc2ccc3ccccc3c2)NC(=O)[C@H](CCCNC(=N)N)NC1=O (cyclo([2Nal][Ahx]LR[2Nal]LR))
Result: 115 µM

----------
Kindly supply the reported MIC values for the records listed here.
- System: Acinetobacter baumannii
- ASSAY INFO: Antimicrobial activity against multidrug-resistant Acinetobacter baumannii ATCC BAA-1605 by tube dilution method
- Type: functional
Square brackets hold non-standard residues; d marks the D form. Peptide text beside a SMILES is read from it. ξ: configuration not given here. 2Nal = N[C@@H](Cc1ccc2ccccc2c1)C(=O)O; ξAoc(2) = CCCCCCC(N)C(=O)O
Report the value in µM with no unit label.

Problem: Would you kindly share the measured MIC for CCCCCCC1NC(=O)[C@H](Cc2ccc3ccccc3c2)NC(=O)[C@H](CCCNC(=N)N)NC(=O)[C@H](CC(C)C)NC(=O)CNC(=O)[C@H](Cc2ccc3ccccc3c2)NC(=O)[C@H](CCCNC(=N)N)NC1=O (some centres undefined) ?
Result: 16

Problem: Cool, now CCCCCC[C@H]1NC(=O)[C@H](Cc2ccc3ccccc3c2)NC(=O)[C@H](CCCNC(=N)N)NC(=O)[C@H](CC(C)C)NC(=O)CNC(=O)[C@H](Cc2ccc3ccccc3c2)NC(=O)[C@H](CCCNC(=N)N)NC1=O
Result: 32

Problem: Input CCCCCCC1NC(=O)CNC(=O)[C@H](Cc2ccc3ccccc3c2)NC(=O)[C@H](CCCNC(=N)N)NC(=O)[C@H](CC(C)C)NC(=O)[C@H](Cc2ccc3ccccc3c2)NC(=O)[C@H](CCCNC(=N)N)NC1=O (some centres undefined) (cyclo([2Nal]G[ξAoc(2)]R[2Nal]LR))
Result: 128
